Assay: qHTS Assay for Lipid Storage Modulators in Drosophila S3 Cells;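 for cell number change: cells counted by Cell Tracker Red CMTPX staining in the red channel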
Settings: BODIPY lipid droplet fluorescence, 18-24 h, cells fed with added oleic acid; measured here: cell count max response
About 2,100 (0.66%) of roughly 320,000 compounds were called active. Inconclusive results (about 53%) are left out. The entries come from a sample that favours actives as a whole.
Would you kindly list cell number change for each of these molecules?
Numbers only, in %.

Here are 8 molecules together with their reported answers.
molecule | reported.value
COC(=O)c1cccc(C23CC4(C2)[C@H](CN(Cc2cccnc2)[C@@H]4c2ccccc2)C3c2ccc(Cl)nc2)c1 (stereo partly drawn) | 17.9
Cc1ccc(S(=O)(=O)NC(C)c2ccccc2)cc1[N+](=O)[O-] (stereo not drawn) | -16.5
Cc1cc2oc(=O)cc(CNc3ccccc3F)c2cc1O | -14.4
Nc1ccc(C(=O)Nc2cccc(NC(=O)c3ccc(N)cc3)c2)cc1 | -20.4
COc1ccc(CN2C(=O)c3cccnc3C2=O)cc1S(=O)(=O)N1CCCCC1 | -13.9
O=C1/C(=C/c2ccco2)CCC1C1CCCC1 (stereo not drawn) | -18.8
CCCN(CCC)S(=O)(=O)c1cc(CN2C(=O)c3cccnc3C2=O)ccc1OC | 9.22
CC1=N/C(=C/c2ccco2)C(=O)O1 | -0.878

Answer for every listed entry: what is its cell number change? The entries follow.
1. O=C(C[n+]1ccccc1)N/N=C/c1cccc(Cl)c1Cl
2. COc1ccccc1NC(=O)C1CCCN(S(=O)(=O)c2ccccc2)C1 (stereo not drawn)
3. CCN(c1cccc(C)c1)S(=O)(=O)c1cc(CN2C(=O)c3cccnc3C2=O)ccc1OC

1: 4.15; 2: -11; 3: 7.63

I have 4 molecules here; please give me cell number change for each one.
1. Cc1ccnc2c1ccc1c(C)ccnc12
2. Cc1cc(-c2csc(N)n2)c(C)n1CCc1ccccc1
3. COCCOC(=O)c1c(NC(=O)CNc2ccc(C)c(F)c2)sc(C(N)=O)c1C
4. COc1ccccc1NC(=O)NN1CCCCC1

1. -0.829
2. -18.9
3. 3.82
4. 17.6

Value sought for every listed molecule: cell number change.
1. Cc1ccc(C(=O)C[n+]2cc(Br)cc(Br)c2)cc1[N+](=O)[O-]
2. O=C1OCc2ccc(NC(=O)c3ccccc3C(=O)O)cc21
3. COc1ccccc1NC(=O)N1CCCC1
4. NC(=O)c1cc(S(=O)(=O)N2CCN(c3cccc(Cl)c3)CC2)cs1
5. COc1ccccc1NC(=O)C1CCCN(S(=O)(=O)c2ccc(-n3cnnn3)cc2)C1 (stereo not drawn)
6. COCCn1nnnc1SCC(=O)N1CCCCC1
7. S=c1[nH]nc(CNc2cccc(Cl)c2)o1

1. 11.3
2. 2.9
3. 1.33
4. 14.3
5. -7.69
6. 6.22
7. 5.85

Can you share its cell number change? I mean this molecule: COc1ccc(CN2C(=O)c3cccnc3C2=O)cc1S(=O)(=O)NC1CCCCC1C (stereo not drawn)
-3.23

* * *

Assay: qHTS Assay for Lipid Storage Modulators in Drosophila S3 Cells;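 for cell number change: cells counted by Cell Tracker Red CMTPX staining in the red channel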
Conditions: BODIPY lipid droplet fluorescence, 18-24 h, cells fed with added oleic acid; measured here: cell count max response
About 2,100 (0.66%) of roughly 320,000 compounds were called active. Roughly 53% stayed inconclusive and do not appear here. The list comes from a sample in which actives are over-represented; it also holds close analogues and randomly drawn compounds.
outcome.measure: cell number change (%)
One number for each entry, in %.

# annotated cases, reported cell number change shown
molecule | cell number change / %
CC(C)(C)c1cc(OC(=O)c2ccncc2)ccc1O | -10.2
Cc1ccc(/C=C/S(=O)(=O)NCCC(=O)NCc2ccc(F)cc2)cc1 | -6.87
CCOC(=O)N1CCN(CC(=O)N2c3ccccc3Sc3ccccc32)CC1 | -12.6
COc1ccc(/C=c2/sc3n(c2=O)C(c2ccccc2OC)C2=C(N=3)c3ccccc3CC2)cc1O (stereo unspecified) | -22.9
CN(C)S(=O)(=O)N1CCN(c2cc(Cl)ccc2Cl)CC1 | -20.4
N#Cc1ccc(C[C@@H](NS(=O)(=O)c2ccc(C(=O)O)cc2)C(=O)O)cc1 | 17.7
CN(C)c1nc(NCc2ccccc2)nc(N/N=C/c2ccc(Cl)cc2Cl)n1 | -26.7
CC(C)(C)c1cc(OS(C)(=O)=O)ccc1O | -0.646

Would you be so kind as to report cell number change for each listed record?
1. CCCCC(CC)C(=O)Oc1ccc(O)c(C(C)(C)C)c1 (stereo unspecified)
2. Cc1ccc(CS(=O)(=O)CCC(=O)NCc2ccc(F)cc2)cc1
3. CN(C)c1nc(NCc2ccccc2)nc(N/N=C/c2ccc(Br)cc2)n1

1. -29.2
2. 22.6
3. -3.42

* * *

Test: qHTS Assay for Lipid Storage Modulators in Drosophila S3 Cells; note: potency is the fitted concentration of half-maximal effect
Details: BODIPY lipid droplet fluorescence, 18-24 h, cells fed with added oleic acid; series mostly up to 46.1 µM
Hit rate of the full screen: of about 320,000 compounds, about 2,100 (0.66%) were called active. Not shown: some 53% with an inconclusive outcome. This is one part of a sample in which actives are shown more often than they occur.
outcome.measure: Potency

compound | Potency
CCCOc1ccc(/C=C/C(=O)N2CCN(c3ccccn3)CC2)cc1 | inactive
CCn1cc(C2CC(=O)NC2=O)c2ccccc21 (stereo unspecified) | inactive
COc1ccc(S(=O)(=O)N(C)c2ccc(C(N)=O)cc2)cc1 | 18.4 µM (active)
CN(Cc1cccc(Cl)c1)C(=O)C1CSC2(C)CCC(=O)N12 (stereo unspecified) | inactive
COc1ccc(S(=O)(=O)N(C)c2ccc(C(=O)N3CCCC3)cc2)cc1 | inactive

Below are 6 compounds. Give each one its Potency.
1. COc1ccc(S(=O)(=O)N(C)c2ccc(C(=O)N3CCOCC3)cc2)cc1OC
2. CN(c1ccc(C(=O)N2CCOCC2)cc1)S(C)(=O)=O
3. CC(=O)OCCc1c(C)nc2nc[nH]n2c1=O
4. CCn1c(SCC(=O)NC2CCCC2)nnc1-c1c[nH]c2ccccc12
5. COc1cc(C=O)ccc1OC(=O)c1ccncc1
6. COc1ccc(S(=O)(=O)N(C)c2ccc(C(=O)N3CCCCC3)cc2)cc1

["inactive", "25.9 µM (active)", "29.1 µM (active)", "inactive", "inactive", "inactive"]

* * *

Test: qHTS Assay for Lipid Storage Modulators in Drosophila S3 Cells
Conditions: BODIPY lipid droplet fluorescence, 18-24 h, cells fed with added oleic acid; series mostly up to 46.1 µM
Hit rate of the full screen: of about 320,000 compounds, about 2,100 (0.66%) were called active. About 53% were inconclusive and are not listed. Calls come from the whole dose curve; as a rule, active = well fitted inhibition curve with a large enough effect in the signal ratio, with a control signal flat (not every such curve was filed as active); inconclusive = small, poorly fitted or top-dose-only effect, or effect the other way, or a change in a side signal; inactive = flat fitted curve, though single readings scatter; the % refers to the signal ratio. For the sample, actives were picked, then their nearest neighbours and some compounds at random.
Pick from Yes (active), No (inactive) when you respond.

# example entries with known answers
molecule | group
O=C(O)c1ccc(/C=N/Nc2ncc(C(F)(F)F)cc2Cl)cc1 | No
CCOc1ccc(N(CC(=O)Nc2ccc(C)cc2)S(=O)(=O)c2c(C)[nH]c(=O)[nH]c2=O)cc1 | No
CC(=O)c1cccc(NC(=O)c2ccc(OC3CSC3)cc2)c1 | No

What classification did Cn1c(SCC(=O)N2CCN(c3ccccc3)CC2)nnc1-c1ccccc1 end up with in this test?
No

Hi team, can someone confirm the assay call for Cc1cccc(C(=O)Nc2c3c(nn2C(C)(C)C)CS(=O)(=O)C3)c1 ?
No

Could you please tell me the result logged for Cc1cc(NC(=O)c2ocnc2C)no1 in this assay?
No

In this assay, the call recorded for COC(=O)C(C)N(c1ccc(C)cc1)S(=O)(=O)c1c(C)[nH]c(=O)[nH]c1=O (stereo not given) was what?
Yes

Hey, what did the test say about O=C(NCC(=O)N(Cc1cccs1)C(C(=O)NC1CCCC1)c1ccncc1)c1ccco1 (stereo not given) ?
No

How did this test come out for COCCOC(=O)/C(C#N)=C/c1cn(Cc2ccccc2)nc1-c1cccnc1 ?
No

Please indicate how the test categorized CC(NC(=O)c1ccccc1F)c1nnc(SCC(=O)NC2=NCCS2)n1C (stereo not given) .
No

* * *

Experiment: qHTS Assay for Lipid Storage Modulators in Drosophila S3 Cells;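 for cell number change: cells counted by Cell Tracker Red CMTPX staining in the red channel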
Conditions: BODIPY lipid droplet fluorescence, 18-24 h, cells fed with added oleic acid; measured here: cell count max response
Out of some 320,000 compounds screened, about 2,100 (0.66%) were called active. About 53% were inconclusive and are not listed. The full list was thinned out, with actives kept by preference.
outcome.measure: cell number change
State the value with its unit after it.

Example molecules with recorded cell number change:
molecule | cell number change
O=C(NC(CCl)c1ccccc1)c1ccc(Cl)cc1 (stereo unspecified) | 13.4%
O=C(Nc1ccc(Cl)cc1)NN1CC(=O)N(c2cccc(C(F)(F)F)c2)CC1=O | -8.1%
COc1ccc(-c2ccc(NS(=O)(=O)c3cc([N+](=O)[O-])c(C)c([N+](=O)[O-])c3)cc2)nn1 | -13.5%
O=C(Nc1ccccc1C(=O)Nc1ccccn1)c1cccc([N+](=O)[O-])c1 | 6.61%
CCOc1ccc(-c2ccc(NS(=O)(=O)c3cc([N+](=O)[O-])c(C)c([N+](=O)[O-])c3)cc2)nn1 | -5.38%

For every item below, please supply its cell number change.
1. COc1ccccc1-c1nc(S(=O)(=O)c2ccccc2)c(N2CCOCC2)o1
2. COc1ccc(CC(=O)Nc2ccc(-c3noc(-c4ccc(Cl)cc4)n3)cc2)cc1
3. CN(CCCNC(=O)CSc1cc(=O)n(C)c2ccc(Cl)cc12)Cc1ccccc1
4. CCN(c1ccc(NC(=O)COC(=O)c2ccc(C)c(S(=O)(=O)N3CCOCC3)c2)cc1)C(C)C
5. CC1=CN2C(=N)/C(=C/c3ccc([N+](=O)[O-])o3)C(=O)N=C2S1

1: 5.82%; 2: -6.7%; 3: -6.41%; 4: -6.95%; 5: -16.4%

Batch request: cell number change for each of the following molecules.
1. CC(=O)c1ccc(NC(=O)Cn2cnc(S(=O)(=O)N3CCOCC3)c2)cc1
2. COc1ccccc1-c1nc(S(=O)(=O)c2ccccc2)c(N2CCCCC2)o1
3. COc1ccc(NC(=S)NC(=O)C2CCC2)cc1
4. CC12COC3(C(=O)Nc4nccs4)CC1CCC32C (stereo unspecified)
5. CCOc1ccc(-c2ccc(/C=C3/C(=N)N4C=CSC4=NC3=O)o2)c([N+](=O)[O-])c1
6. C/C(=N\N=C\c1cccc(F)c1)c1nnn(-c2nonc2N)c1C
7. COCCOC(=O)/C(C#N)=C/c1cn(Cc2ccccc2)nc1-c1cccnc1
8. c1ccc2c(c1)nnn2CNc1nccs1

1. -2.31%
2. -11.8%
3. -5.57%
4. 20.9%
5. 4.83%
6. -1.27%
7. -16.4%
8. -2.46%

Cited source: PubChem BioAssay AID2685
